Each entry below carries its recorded Total Cell Count.
system: U2OS; test: Multiplex assay against U2OS; format: toxicity, cell-based; settings: human, 24 h, 1 µM, compound concentration 1 uM, replicate 1
Write the number on its own, no unit after it.

The following molecules have reported results that may help.
Nc1nc(CC(=O)Nc2ccc(CCNC[C@H](O)c3ccccc3)cc2)cs1 [MIRABEGRON] : 289
COc1cc(C(=O)N2CC[C@@H](O)[C@@H](N)C2)cc2nc(-c3cc4ccccc4n3CC3CC3)n(C)c12.Cl : 243

Input line: Look up Total Cell Count: COC(c1ccccc1)(c1ccccc1)[C@H](Oc1nc(C)cc(C)n1)C(=O)O [AMBRISENTAN]
Output line: 248

Input line: Query (molecule): `COc1cc(OC2CCN(C(C)=O)CC2)ccc1C(=O)N1CCC(N2C(=O)OCc3ccccc32)CC1` ; field requested: Total Cell Count
Output line: 288

Input line: Fill blank: measured Total Cell Count of the molecule CN(C)C/C=C/C(=O)Nc1ccc(C(=O)N2CCCC(Nc3ncc(Cl)c(-c4c[nH]c5ccccc45)n3)C2)cc1 (stereo not given) is ____.
Output line: 271

====

# Population Hoechst High Intensity Objects (%) per record follows
system: U2OS; assay: Multiplex assay against U2OS; format: toxicity, cell-based; conditions: human, 12 h, 1 µM, compound concentration 1 uM, replicate 2
Your answer should be a plain number; it is taken to be in %.

Recorded results for 4 molecules are shown here.
CCn1c(-c2nc3cc(C(=O)N4CCCC(N)C4)ccc3n2C)cc2ccccc21.Cl (stereo not given) : 5
CC(C)(O)C(=O)N1CCN(c2ccc(C(F)(F)F)c(C3=C(c4c[nH]c5ccccc45)C(=O)NC3=O)c2)CC1 : 1
CN(C)C(=O)Cn1cc(-c2ccc(-c3nnc4ccccn34)cc2)cn1 : 0
COc1cc(C(=O)N2CC[C@@H](O)[C@@H](N)C2)cc2nc(-c3cc4ccccc4n3CC3CC3)n(C)c12.Cl : 1

Note: attention shifts to another entry.
Input line: // query Population Hoechst High Intensity Objects (%) value for entry `CCCCCCNC(=O)Nc1ccc(S(=O)(=O)Nc2ccc(CCNC[C@H](O)COc3ccc(O)cc3)cc2)cc1`
Output line: 0

====

system: HEK-293T; assay: Multiplex assay against HEK293T; type: toxicity, cell-based; conditions: human, 12 h, 10 µM, compound concentration 10 uM, replicate 1
As shown below, each of these compounds has a reported Population Apoptotic (%) value.
Write the value in % as a bare number.

Below, 5 compounds whose answers are already recorded.
CN(C)C(=O)Cn1cc(-c2ccc(-c3nnc4ccccn34)cc2)cn1 : 32
CC(C)(O)C(=O)N1CCN(c2ccc(C(F)(F)F)c(C3=C(c4c[nH]c5ccccc45)C(=O)NC3=O)c2)CC1 : 51
COc1ccc2c(c1OCc1ccccc1)C[C@@H](C(=O)O)N(C(=O)C(c1ccccc1)c1ccccc1)C2 : 45
CCCCC[C@H](O)/C=C/[C@H]1[C@H](O)CC(=O)[C@@H]1CCCCCCC(=O)O : 33
CC(C)C[C@H](CO)Nc1nc(S[C@@H](C)c2ccccc2)nc2nc(N)sc12 : 65

Input line: Report Population Apoptotic (%) for CN(C)C/C=C/C(=O)Nc1ccc(C(=O)N2CCCC(Nc3ncc(Cl)c(-c4c[nH]c5ccccc45)n3)C2)cc1 (configuration not stated) please.
Output line: 62
